Assay: collision cross section (N2, base ion); higher = larger ion cross section
measured_quantity: collision cross section (Å²)
# output: bare number, implied unit Å²

Some solved entries appear below for comparison.
{"compound": "c1cc2cccc3c4cccc5cccc(c(c1)c23)c54 [Perylene] (APCI source condition: Dry, base ion: M+.)", "unit_spec": "Å²", "data_value": 143.02}
{"compound": "Brc1cc(Oc2c(Br)cc(Br)c(Br)c2Br)cc(Br)c1Br [PBDE 191] (APCI source condition: Dry, base ion: M+.)", "unit_spec": "Å²", "data_value": 187.91}
{"compound": "c1ccc2c(c1)-c1cccc3c1c-2cc1ccccc13 [Benzo(b)fluoranthene] (APCI source condition: Dry, base ion: M+.)", "unit_spec": "Å²", "data_value": 145.46}
{"compound": "Clc1ccc(Cl)c(Cl)c1Cl [1,2,3,4-Tetrachlorobenzene] (APCI source condition: Dry, base ion: M+.)", "unit_spec": "Å²", "data_value": 135.67}
{"compound": "c1ccc2cc3ccccc3cc2c1 [Anthracene] (APCI source condition: Dry, base ion: M+.)", "unit_spec": "Å²", "data_value": 138}

So, Brc1ccc(Oc2cc(Br)c(Br)cc2Br)c(Br)c1 [PBDE 99] (APCI source condition: Dry, base ion: M+.) ? Its collision cross section was 169.31

So, Clc1ccc(Cl)c(-c2cc(Cl)c(Cl)cc2Cl)c1 [PCB 101] (APCI source condition: Dry, base ion: M+.) ? Its collision cross section was 155.45
